Target: T1, LAG-3-hFc protein (human LAG-3 extracellular region with hFc tag) (human, UniProt P18627 23-450)
T1 construct: also called hLAG-3-hFc; LAG-3 protein; not shown: human IgG Fc fragment (hFc) of the pCpC vector
T1 sequence: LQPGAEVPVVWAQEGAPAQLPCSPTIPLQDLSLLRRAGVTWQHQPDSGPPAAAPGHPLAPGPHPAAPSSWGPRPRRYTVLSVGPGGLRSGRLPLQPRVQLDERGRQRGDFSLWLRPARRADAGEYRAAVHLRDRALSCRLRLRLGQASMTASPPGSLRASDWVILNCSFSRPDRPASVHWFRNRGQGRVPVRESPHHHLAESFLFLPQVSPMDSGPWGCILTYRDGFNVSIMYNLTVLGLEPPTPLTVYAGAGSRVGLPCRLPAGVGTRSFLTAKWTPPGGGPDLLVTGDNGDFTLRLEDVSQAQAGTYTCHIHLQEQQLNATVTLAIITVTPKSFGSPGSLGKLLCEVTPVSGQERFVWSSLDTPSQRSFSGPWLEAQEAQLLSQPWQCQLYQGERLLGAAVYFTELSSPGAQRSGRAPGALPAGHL
Assay: FACS, inhibition of LAG-3-hFc binding to MHC II on Raji cells, antibody 22.222 nM
MEASUREMENT_LABEL: Inhibition rate (%)
Field: numeric (%). Do not append units.

Reference set (3 entries):
105F1E10 mouse-human chimeric antibody (antibody, V domains shown, also called mAb009-105F1E10) VH: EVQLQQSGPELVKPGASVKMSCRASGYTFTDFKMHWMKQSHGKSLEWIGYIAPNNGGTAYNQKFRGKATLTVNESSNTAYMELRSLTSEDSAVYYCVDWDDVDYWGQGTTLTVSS VL: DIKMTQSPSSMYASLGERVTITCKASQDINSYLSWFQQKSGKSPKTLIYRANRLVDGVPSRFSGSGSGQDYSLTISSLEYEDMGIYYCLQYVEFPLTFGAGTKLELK | 95.8
409D4E10 mouse-human chimeric antibody (antibody, V domains shown, also called mAb112-409D4E10) VH: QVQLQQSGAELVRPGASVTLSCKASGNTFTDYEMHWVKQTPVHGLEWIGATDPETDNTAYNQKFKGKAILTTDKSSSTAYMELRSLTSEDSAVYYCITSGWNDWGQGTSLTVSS VL: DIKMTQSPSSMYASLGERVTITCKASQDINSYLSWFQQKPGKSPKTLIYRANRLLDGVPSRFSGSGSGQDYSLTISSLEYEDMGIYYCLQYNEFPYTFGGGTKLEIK | 95.7
409B11E12 mouse-human chimeric antibody (antibody, V domains shown, also called mAb104-409B11E12) VH: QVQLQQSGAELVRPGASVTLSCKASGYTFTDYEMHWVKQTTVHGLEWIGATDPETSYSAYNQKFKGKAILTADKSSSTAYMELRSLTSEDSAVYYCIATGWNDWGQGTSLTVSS VL: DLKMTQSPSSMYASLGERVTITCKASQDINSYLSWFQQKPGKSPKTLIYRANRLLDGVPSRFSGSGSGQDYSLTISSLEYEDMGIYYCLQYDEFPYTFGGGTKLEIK | 95.6

Now for another entry.
Look up and state reported Inhibition rate (%) for 556F6B8 mouse-human chimeric antibody (antibody, V domains shown, also called mAb123-556F6B8; 556F8B8) VH: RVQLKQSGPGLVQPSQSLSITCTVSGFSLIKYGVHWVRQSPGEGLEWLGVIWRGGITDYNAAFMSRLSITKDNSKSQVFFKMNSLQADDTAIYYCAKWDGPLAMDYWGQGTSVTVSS VL: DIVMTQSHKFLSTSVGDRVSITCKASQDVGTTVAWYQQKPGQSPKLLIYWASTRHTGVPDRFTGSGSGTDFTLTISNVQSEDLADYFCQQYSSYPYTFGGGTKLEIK 95.8
